Record set of IC50 for target or system TYRO3 (Homo sapiens, UniProt Q06418).

Molecule: COC[C@H](C)Nc1ncc2c(O[C@@H]3CCNCC3(F)F)ncc([C@H]3CC[C@H](O)CC3)c2n1
Assay System: TYRO3 (Homo sapiens, UniProt Q06418)
Sequence (Q06418 41-890): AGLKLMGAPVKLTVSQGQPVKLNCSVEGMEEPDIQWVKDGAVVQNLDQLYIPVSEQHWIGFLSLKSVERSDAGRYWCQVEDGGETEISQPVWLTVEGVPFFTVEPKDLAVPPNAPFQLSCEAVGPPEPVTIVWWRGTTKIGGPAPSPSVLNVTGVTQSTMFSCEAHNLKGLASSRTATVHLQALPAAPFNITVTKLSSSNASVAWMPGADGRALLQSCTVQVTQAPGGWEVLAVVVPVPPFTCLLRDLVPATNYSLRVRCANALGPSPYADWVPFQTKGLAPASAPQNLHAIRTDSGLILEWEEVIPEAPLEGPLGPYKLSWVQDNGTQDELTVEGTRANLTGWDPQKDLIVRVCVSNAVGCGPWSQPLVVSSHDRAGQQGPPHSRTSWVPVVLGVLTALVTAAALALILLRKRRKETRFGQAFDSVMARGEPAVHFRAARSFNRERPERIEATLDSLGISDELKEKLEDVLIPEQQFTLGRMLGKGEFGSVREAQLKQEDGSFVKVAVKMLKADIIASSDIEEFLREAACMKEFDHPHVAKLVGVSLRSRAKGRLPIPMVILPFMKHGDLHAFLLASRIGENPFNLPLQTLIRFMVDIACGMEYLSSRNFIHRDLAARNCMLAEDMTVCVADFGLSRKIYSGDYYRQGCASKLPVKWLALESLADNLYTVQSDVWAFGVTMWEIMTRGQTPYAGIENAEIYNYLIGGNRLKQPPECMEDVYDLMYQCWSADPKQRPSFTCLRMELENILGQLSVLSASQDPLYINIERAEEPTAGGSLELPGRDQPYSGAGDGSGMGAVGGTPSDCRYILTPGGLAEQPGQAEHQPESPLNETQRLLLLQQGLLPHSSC
IC50: 100 to 1000 nM
--
Molecule: CCCCC[C@H](C)Nc1ncc2c(OC3CCNCC3)ncc([C@H]3CC[C@H](O)CC3)c2n1
Assay System: TYRO3 (Homo sapiens, UniProt Q06418)
IC50: ≤ 100 nM

[Q] Lab note: record IC50 of CCCC(C)Nc1ncc2c(OC3CCN(CC(=O)N(C)C)CC3)ncc([C@H]3CC[C@H](O)CC3)c2n1 (stereo partly drawn) tested on TYRO3 (Homo sapiens, UniProt Q06418).
[A] ≤ 100 nM
